Target: T1, mouse IL-2Rγ (mouse, UniProt P34902 23-263)
T1 construct: also called mo IL-2R
T1 sequence (looked up): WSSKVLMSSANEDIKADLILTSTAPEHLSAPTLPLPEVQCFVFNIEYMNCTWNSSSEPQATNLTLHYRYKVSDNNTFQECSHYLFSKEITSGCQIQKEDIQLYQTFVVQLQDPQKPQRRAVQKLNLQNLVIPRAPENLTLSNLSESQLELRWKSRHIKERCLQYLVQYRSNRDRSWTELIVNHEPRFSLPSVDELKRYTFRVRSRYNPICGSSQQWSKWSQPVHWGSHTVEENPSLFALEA
Test: PE binding ELISA, periplasmic extract on coated protein
# reported OD (PE binding ELISA); entries follow
Only the number, expressed in OD450 nm, is required.

Below, 5 binders whose answers are already recorded.
FJ1427_P035MP04A01 (VHH, VHH in periplasmic extract; also called clone nr) VHH: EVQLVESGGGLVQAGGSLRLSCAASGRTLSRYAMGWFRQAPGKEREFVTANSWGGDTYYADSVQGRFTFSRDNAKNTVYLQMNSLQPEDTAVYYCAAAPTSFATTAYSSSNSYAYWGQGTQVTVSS; 0.06
FJ1427_P035MP04D10 (VHH, VHH in periplasmic extract; also called clone nr; 364) VHH: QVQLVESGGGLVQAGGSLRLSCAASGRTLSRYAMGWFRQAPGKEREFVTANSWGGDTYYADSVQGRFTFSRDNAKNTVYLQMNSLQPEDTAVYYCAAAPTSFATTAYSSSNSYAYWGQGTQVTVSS; 0.077
FJ1427_P035MP04B08 (VHH, VHH in periplasmic extract; also called clone nr) VHH: QVQLVESGGGLVQAGGSLRLSCVASGRTLSRYAMGWFRQAPGKEREFVTANSWGGDTYYADSVQGRFTFSRDNAKNTVYLQMNSLQPEDTAVYYCAAAPTSFATTAYSSSNSYAYWGQGTQVTVSS; 0.075
FJ1427_P035MP04G04 (VHH, VHH in periplasmic extract; also called clone nr) VHH: QVQLVESGGGLVQAGGSLRLSCAASGRTLSRYAVGWFRQAPGKEREFVTANSWGGDTFYADSVQGRFTFSRDNAKNTVYLQMNSLLPEDAAVYYCAAAPTSFATTAYSSSNSYKVWGQGTQVTVSS; 0.276
FJ1427_P035MP04H07 (VHH, VHH in periplasmic extract; also called clone nr) VHH: QLQLVESGGGLVQAGGSLRLSCAASGRTLSRYAMGWFRQAPGKEREFVTANSWGGDTYYADSVQGRFTFSRDNAKNTVYLQMNSLQPEDTAVYYCAAAPTSFATTAYSSSNSYAYWGQGTQVTVSS; 0.076

Req: I'd like to know its OD (PE binding ELISA). The binder in question is FJ1427_P035MP04E07 (VHH, VHH in periplasmic extract; also called clone nr) VHH: QVQLVESGGGLVQAGGSLRLSCAASGRTLSRYAMGWFRQAPGKERDFVAATSWGGDTYYADSVEGRFTFSRDNAKNAVYLQMNSLQPEDTAVYYCAAAPTSFATTAYSSSNSYAYWGQGTQVTVSS
Resp: 0.079

Req: I'd like to know its OD (PE binding ELISA). The binder in question is FJ1427_P035MP04B09 (VHH, VHH in periplasmic extract; also called clone nr) VHH: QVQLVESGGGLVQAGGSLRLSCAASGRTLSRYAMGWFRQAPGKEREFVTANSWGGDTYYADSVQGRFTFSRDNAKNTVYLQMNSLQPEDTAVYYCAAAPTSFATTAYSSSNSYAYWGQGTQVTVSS
Resp: 0.083

Req: I'd like to know its OD (PE binding ELISA). The binder in question is FJ1427_P035MP04C02 (VHH, VHH in periplasmic extract; also called clone nr) VHH: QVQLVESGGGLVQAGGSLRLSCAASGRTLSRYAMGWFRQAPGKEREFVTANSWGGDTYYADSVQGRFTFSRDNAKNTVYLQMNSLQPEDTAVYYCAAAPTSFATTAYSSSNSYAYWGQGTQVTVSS
Resp: 0.07

Ref: patent US20240409645A1
